Target: EGFR L858R/T790M/C797S (Homo sapiens, UniProt P00533, C797S/L858R/T790M)
Sequence (P00533 25-1210 T790M/C797S/L858R): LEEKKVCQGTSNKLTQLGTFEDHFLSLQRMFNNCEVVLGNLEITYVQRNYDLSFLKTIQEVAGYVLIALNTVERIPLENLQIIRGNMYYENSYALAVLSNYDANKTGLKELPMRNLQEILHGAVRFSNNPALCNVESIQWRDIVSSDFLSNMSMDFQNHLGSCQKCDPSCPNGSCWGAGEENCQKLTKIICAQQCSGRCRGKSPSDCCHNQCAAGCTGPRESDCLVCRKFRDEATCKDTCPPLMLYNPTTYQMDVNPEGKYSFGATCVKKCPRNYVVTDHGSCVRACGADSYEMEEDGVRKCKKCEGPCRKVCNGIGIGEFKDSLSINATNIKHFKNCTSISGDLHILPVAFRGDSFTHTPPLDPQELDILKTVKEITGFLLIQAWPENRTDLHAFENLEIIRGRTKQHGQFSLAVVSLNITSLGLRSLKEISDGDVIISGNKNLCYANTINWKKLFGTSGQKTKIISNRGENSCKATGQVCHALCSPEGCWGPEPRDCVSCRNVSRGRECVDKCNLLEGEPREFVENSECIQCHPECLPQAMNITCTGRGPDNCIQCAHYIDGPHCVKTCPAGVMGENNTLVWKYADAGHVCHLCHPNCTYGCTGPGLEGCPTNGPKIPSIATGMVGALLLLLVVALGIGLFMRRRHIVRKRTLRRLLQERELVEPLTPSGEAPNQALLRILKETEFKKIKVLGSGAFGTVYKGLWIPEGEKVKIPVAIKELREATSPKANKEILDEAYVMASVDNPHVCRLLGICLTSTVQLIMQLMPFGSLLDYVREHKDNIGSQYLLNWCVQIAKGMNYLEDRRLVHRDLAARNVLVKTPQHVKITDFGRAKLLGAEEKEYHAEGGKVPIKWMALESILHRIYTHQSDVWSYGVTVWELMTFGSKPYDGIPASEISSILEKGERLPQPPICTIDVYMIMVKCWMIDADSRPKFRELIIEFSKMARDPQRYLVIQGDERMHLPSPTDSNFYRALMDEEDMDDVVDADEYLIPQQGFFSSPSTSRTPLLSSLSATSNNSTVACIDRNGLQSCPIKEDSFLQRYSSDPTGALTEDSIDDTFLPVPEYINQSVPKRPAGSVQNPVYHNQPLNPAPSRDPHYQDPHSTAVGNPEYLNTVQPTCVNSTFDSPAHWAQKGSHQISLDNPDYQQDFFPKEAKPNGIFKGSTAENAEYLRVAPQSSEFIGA
Assay: Biochemical EGFR kinase inhibition assay (Lance Ultra TR-FRET), triple mutant L858R/T790M/C797S
Conditions: IC50 L858R/T790M/C797S (nM), 100 μM ATP
observation.type: IC50 (nM)

compound: CN(C)CC1CCN(c2cc(Nc3ccnc(-c4cnn(S(=O)(=O)C5CC5)c4)n3)ncc2C#Cc2cnn(CC(F)F)c2)CC1
IC50 [nM]: 1.4

compound: Cn1cc(C#Cc2cnc(Nc3ccnc(-c4cnn(S(=O)(=O)C5CC5)c4)n3)cc2NC2CCCC(F)C2)cn1 (centres unmarked)
IC50 [nM]: 13.6

compound: CN1CCN(Cc2ccc(C#Cc3cnc(Nc4ccnc(-c5cnn(S(=O)(=O)C6CC6)c5)n4)cc3NC[C@H]3CC[C@H](O)CC3)cc2)CC1
IC50 [nM]: 1.5

compound: CC(C)(O)CC#Cc1cnc(Nc2ccnc(-c3cnn(S(=O)(=O)C4CC4)c3)n2)cc1N1CCC(C)(CO)CC1
IC50 [nM]: 1.7

compound: O=S(=O)(C1CC1)n1cc(-c2nccc(Nc3cc(N[C@@H]4CCC[C@H](O)C4)c(C#Cc4cnn(CCF)c4)cn3)n2)cn1
IC50 [nM]: 2.9

P. CC1(CO)CCN(c2cc(Nc3ccnc(-c4cnn(S(=O)(=O)C5CC5)c4)n3)ncc2C#CCNC(=O)C(F)(F)F)CC1
Q. CS(=O)(=O)N1CCC(C#Cc2cnc(Nc3ccnc(-c4cnn(S(=O)(=O)C5CC5)c4)n3)cc2N[C@H]2CC[C@@H](CO)CC2)CC1
R. Cn1cnc(C#Cc2cnc(Nc3ccnc(-c4cnn(S(=O)(=O)C5CC5)c4)n3)cc2N[C@H]2CC[C@@H](O)CC2)n1
S. COC1(O)CCN(c2cc(Nc3ccnc(-c4cnn(S(=O)(=O)C5CC5)c4)n3)ncc2C#Cc2ccc(CN3CCN(C)CC3)cc2)CC1
T. CC1(CO)CCN(c2cc(Nc3ccnc(Nc4ccccc4S(C)(=O)=O)n3)ncc2C#Cc2cnn(C(F)F)c2)CC1
Query: List items by IC50 in falling order. The labels, placed in the requested order, form the answer.
Reply: R, T, Q, S, P
(R: 15.4 nM, T: 9.2 nM, Q: 0.7 nM, S: 0.4 nM, P: 0.2 nM)

A. Cn1cc(C#Cc2cnc(Nc3ccnc(-c4cnn(S(=O)(=O)C5CC5)c4)n3)cc2N[C@H]2CC[C@@H](O)CC2)c(C(F)(F)F)n1
B. CN(C)C[C@H]1CC[C@@H](Nc2cc(Nc3ccnc(-c4cnn(S(=O)(=O)C5CC5)c4)n3)ncc2C#Cc2cnn(CC(F)F)c2)CC1
C. CN1CCN(Cc2ccc(C#Cc3cnc(Nc4ccnc(-c5cnn(S(=O)(=O)C6CC6)c5)n4)cc3NC[C@H]3CC[C@](C)(O)CC3)cc2)CC1
D. CC1(CO)CCN(c2cc(Nc3ccnc(-c4cnn(S(=O)(=O)C5CC5)c4)n3)ncc2C#Cc2ccccc2)CC1
Query: List items by IC50 in falling order. The labels, placed in the requested order, form the answer.
Reply: D, A, C, B
(D: 17.7 nM, A: 11.3 nM, C: 2.4 nM, B: 0.7 nM)

a. Cn1cc(C#Cc2cnc(Nc3ccnc(-c4cnn(S(=O)(=O)C5CC5)c4)n3)cc2N2CCC(O)C(C)(C)C2)cn1 (centres unmarked)
b. O=S(=O)(C1CC1)n1cc(-c2nccc(Nc3cc(N[C@H]4CCC[C@H](O)C4)c(C#Cc4cnn(CC(F)(F)F)c4)cn3)n2)cn1
Query: Choose between a and b : whose measured IC50 value is numerically larger? Selection: enter the item's label.
Reply: a

P. CN1CCC(C#Cc2cnc(Nc3ccnc(-c4cnn(S(=O)(=O)C5CC5)c4)n3)cc2NC2CCC(O)CC2)C1 (centres unmarked)
Q. O=S(=O)(C1CC1)n1cc(-c2nccc(Nc3cc(N[C@H]4CC[C@@H](CO)CC4)c(C#Cc4cnn(CC(F)(F)F)c4)cn3)n2)cn1
R. CC(C)(O)[C@H]1CC[C@@H](Nc2cc(Nc3ccnc(-c4cnn(S(=O)(=O)C5CC5)c4)n3)ncc2C#Cc2cnn(CC(F)(F)F)c2)CC1
Query: // smallest IC50 at index 0, largest at the end The labels, placed in the requested order, form the answer.
Reply: P, Q, R

* * *

Target: EGFR Del19/C797S (Homo sapiens, UniProt P00533, C797S/DEL746-750)
Sequence (P00533 with tags, fused parts or gaps DEL746-750/C797S): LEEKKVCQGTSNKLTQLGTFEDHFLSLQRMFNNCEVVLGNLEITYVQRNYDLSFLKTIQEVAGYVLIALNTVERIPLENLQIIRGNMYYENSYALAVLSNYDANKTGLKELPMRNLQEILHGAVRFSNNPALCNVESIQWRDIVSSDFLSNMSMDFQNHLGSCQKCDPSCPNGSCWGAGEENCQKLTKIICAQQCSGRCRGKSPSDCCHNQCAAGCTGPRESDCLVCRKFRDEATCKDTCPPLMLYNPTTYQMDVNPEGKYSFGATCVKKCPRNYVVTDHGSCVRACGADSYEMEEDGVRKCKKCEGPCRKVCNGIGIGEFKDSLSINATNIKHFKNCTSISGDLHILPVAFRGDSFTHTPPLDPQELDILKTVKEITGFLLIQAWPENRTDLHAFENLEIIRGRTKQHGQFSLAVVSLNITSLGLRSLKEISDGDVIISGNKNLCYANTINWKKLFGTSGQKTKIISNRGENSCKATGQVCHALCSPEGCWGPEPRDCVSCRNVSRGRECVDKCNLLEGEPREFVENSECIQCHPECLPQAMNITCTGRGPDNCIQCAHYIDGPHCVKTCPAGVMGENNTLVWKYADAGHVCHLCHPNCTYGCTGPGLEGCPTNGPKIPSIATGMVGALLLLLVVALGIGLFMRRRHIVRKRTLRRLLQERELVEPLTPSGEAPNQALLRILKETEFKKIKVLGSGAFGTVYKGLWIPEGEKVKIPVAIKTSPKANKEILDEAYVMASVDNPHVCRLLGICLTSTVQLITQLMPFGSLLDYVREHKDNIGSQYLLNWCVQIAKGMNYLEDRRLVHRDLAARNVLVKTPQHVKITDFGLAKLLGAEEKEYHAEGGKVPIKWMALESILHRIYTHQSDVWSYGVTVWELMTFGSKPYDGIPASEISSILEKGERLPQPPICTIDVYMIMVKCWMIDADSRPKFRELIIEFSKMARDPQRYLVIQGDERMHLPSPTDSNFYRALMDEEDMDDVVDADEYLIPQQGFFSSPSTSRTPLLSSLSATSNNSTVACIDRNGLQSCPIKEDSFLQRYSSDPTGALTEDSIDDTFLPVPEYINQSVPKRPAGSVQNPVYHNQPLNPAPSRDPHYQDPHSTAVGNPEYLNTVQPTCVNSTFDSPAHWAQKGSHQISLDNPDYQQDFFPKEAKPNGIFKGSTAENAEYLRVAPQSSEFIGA
Test: Biochemical EGFR kinase inhibition assay (Lance Ultra TR-FRET), double mutant del19/C797S
Conditions: IC50 Del19/C797S (nM), 100 μM ATP
Method: Biochemical EGFR kinase assays were conducted using Lance Ultra time-resolved fluorescence resonance energy transfer (TR-FRET) technology from Perkin-Elmer. […] Each kinase reactions were incubated at room temperature for 1 hour and then stopped by the addition of 4 μL of stop solution (10 mM EDTA). […] After 60 minutes incubation at room temperature the LANCE signal was measured on an EnVision Multilabel Reader (Perkin-Elmer). […]
observation.type: IC50 (nM)

Solved entries (count: 3):
compound: O=S(=O)(C1CC1)n1cc(-c2nccc(Nc3cc(NC[C@H]4CC[C@H](O)CC4)c(C#CC4CC5CCC4O5)cn3)n2)cn1 (stereo partly shown) [Example 423]
measurement: 105
//
compound: CC1(CO)CCN(c2cc(Nc3ccnc(-c4cnn(S(=O)(=O)C5CC5)c4)n3)ncc2C#Cc2ccncc2)CC1 [Example 258]
measurement: 0.5
//
compound: COC1(O)CCN(c2cc(Nc3ccnc(-c4cnn(S(=O)(=O)C5CC5)c4)n3)ncc2C#CC2CCN(C)C2)CC1 (stereo not shown) [Example 371]
measurement: 2.5

P. Cn1cc(C#Cc2cnc(Nc3ccnc(-c4cnn(S(=O)(=O)C5CC5)c4)n3)cc2N[C@H]2CC[C@@](C)(O)CC2)cn1 [Example 81]
Q. CC(C)Nc1cc(Nc2ccnc(-c3cnn(S(=O)(=O)C4CC4)c3)n2)ncc1C#CC(C)(C)O [Example 204]
Query: # min-compare on IC50 between P and Q Selection: enter the item's label.
Reply: P

* * *

Biological target: EGFR L858R/C797S (Homo sapiens, UniProt P00533, C797S/L858R)
Sequence (P00533 25-1210 C797S/L858R): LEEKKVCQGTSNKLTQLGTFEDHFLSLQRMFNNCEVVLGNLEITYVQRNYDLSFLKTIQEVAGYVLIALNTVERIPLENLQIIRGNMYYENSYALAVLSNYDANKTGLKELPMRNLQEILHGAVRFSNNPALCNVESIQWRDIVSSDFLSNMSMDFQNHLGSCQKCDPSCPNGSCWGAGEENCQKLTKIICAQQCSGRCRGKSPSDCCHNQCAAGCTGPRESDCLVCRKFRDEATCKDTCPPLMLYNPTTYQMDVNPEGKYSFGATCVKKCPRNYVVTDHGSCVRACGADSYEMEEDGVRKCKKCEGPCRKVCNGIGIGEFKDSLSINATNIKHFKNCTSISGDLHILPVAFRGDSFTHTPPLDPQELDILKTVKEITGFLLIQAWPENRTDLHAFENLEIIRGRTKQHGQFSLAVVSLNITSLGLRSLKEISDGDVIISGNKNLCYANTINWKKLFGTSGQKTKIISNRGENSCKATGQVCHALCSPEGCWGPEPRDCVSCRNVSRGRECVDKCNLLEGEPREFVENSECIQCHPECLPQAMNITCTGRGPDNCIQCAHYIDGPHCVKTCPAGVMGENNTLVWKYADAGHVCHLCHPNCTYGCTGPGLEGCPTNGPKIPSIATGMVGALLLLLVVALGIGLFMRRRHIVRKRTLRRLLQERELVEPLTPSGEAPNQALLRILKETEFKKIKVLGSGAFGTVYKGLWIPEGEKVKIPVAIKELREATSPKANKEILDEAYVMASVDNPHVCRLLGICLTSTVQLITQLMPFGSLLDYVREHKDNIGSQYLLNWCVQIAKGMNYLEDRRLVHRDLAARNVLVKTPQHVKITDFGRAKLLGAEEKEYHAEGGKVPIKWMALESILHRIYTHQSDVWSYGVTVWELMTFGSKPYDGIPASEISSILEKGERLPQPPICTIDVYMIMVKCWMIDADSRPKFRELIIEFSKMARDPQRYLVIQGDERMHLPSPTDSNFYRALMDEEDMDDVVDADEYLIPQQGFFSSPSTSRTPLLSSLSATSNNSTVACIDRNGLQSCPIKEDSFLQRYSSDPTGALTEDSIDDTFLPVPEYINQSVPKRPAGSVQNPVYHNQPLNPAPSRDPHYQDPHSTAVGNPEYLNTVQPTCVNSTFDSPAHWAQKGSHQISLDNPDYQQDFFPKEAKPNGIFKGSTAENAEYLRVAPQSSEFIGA
Experiment: Biochemical EGFR kinase inhibition assay (Lance Ultra TR-FRET), double mutant L858R/C797S
Settings: IC50 L858R/C797S (nM), 100 μM ATP
observation.type: IC50 (nM)

Solved entries (count: 3):
molecule: C[C@]1(O)CC[C@@H](Nc2cc(Nc3ccnc(-c4cnn(S(=O)(=O)C5CC5)c4)n3)ncc2C#Cc2cnn(C(F)(F)F)c2)CC1
target.entity: EGFR L858R/C797S (Homo sapiens, UniProt P00533, C797S/L858R)
measurement: 2200
--
molecule: O=S(=O)(C1CC1)n1cc(-c2nccc(Nc3cc(N[C@H]4CC[C@](O)(CO)CC4)c(C#Cc4cnn(C(F)F)c4)cn3)n2)cn1
target.entity: EGFR L858R/C797S (Homo sapiens, UniProt P00533, C797S/L858R)
measurement: 103
--
molecule: O=S(=O)(C1CC1)n1cc(-c2nccc(Nc3cc(N[C@H]4CCC[C@H](O)C4)c(C#Cc4cnn(CC(F)(F)F)c4)cn3)n2)cn1
target.entity: EGFR L858R/C797S (Homo sapiens, UniProt P00533, C797S/L858R)
measurement: 128

I. CC1OCCC1C#Cc1cnc(Nc2ccnc(-c3cnn(S(=O)(=O)C4CC4)c3)n2)cc1N1CCC(C)(O)CC1 (stereo not drawn)
II. CC(O)CC#Cc1cnc(Nc2ccnc(-c3cnn(S(=O)(=O)C4CC4)c3)n2)cc1N1CCC(C)(CO)CC1 (stereo not drawn)
III. CC1(C)CN(c2cc(Nc3ccnc(-c4cnn(S(=O)(=O)C5CC5)c4)n3)ncc2C#Cc2ccsc2)CCC1O (stereo not drawn)
Query: List items by IC50 in falling order. The labels, placed in the requested order, form the answer.
Reply: III, I, II

* * *

Target: EGFR L858R/C797S (Homo sapiens, UniProt P00533, C797S/L858R)
Test: Biochemical EGFR kinase inhibition assay (Lance Ultra TR-FRET), double mutant L858R/C797S
Conditions: ATP at Km; read-out: IC50 L858R/C797S (nM), Km ATP
Procedure: Biochemical EGFR kinase assays were conducted using Lance Ultra time-resolved fluorescence resonance energy transfer (TR-FRET) technology from Perkin-Elmer. […] Each kinase reactions were incubated at room temperature for 1 hour and then stopped by the addition of 4 μL of stop solution (10 mM EDTA). […] After 60 minutes incubation at room temperature the LANCE signal was measured on an EnVision Multilabel Reader (Perkin-Elmer). […]
observation.type: IC50 (nM)

molecule: CC1(CO)CCN(c2cc(Nc3ccnc(-c4cnn(S(=O)(=O)C5CC5)c4)n3)ncc2C#Cc2cnn(CC3COCCO3)c2)CC1 (stereo not drawn)
IC50, nM: 1

A. CC1(C#Cc2cnc(Nc3ccnc(-c4cnn(S(=O)(=O)C5CC5)c4)n3)cc2N2CCC(C)(CO)CC2)CCOCC1
B. CC1(CO)CCN(c2cc(Nc3ccnc(-c4cnn(S(=O)(=O)C5CC5)c4)n3)ncc2C#Cc2ccc(CN3CCOCC3)cn2)CC1
Query: # min-compare on IC50 between A and B Selection: enter the item's label.
Reply: B
(B: 0.9 nM, A: 26.9 nM)
